# Test system: Plasmodium falciparum
# test_name: Antiplasmodial activity against chloroquine-sensitive Plasmodium falciparum D6 by LDH reporter assay
# Assay type: functional, organism-based
pIC50: −log10 of the molar value.
property: pIC50

                                   molecule  recorded_measurement
0  c1cc(N2CCN(c3ccc(C4=NCCCN4)cc3)CC2)ccc1C1=NCCCN1                  6.97
1  CCCCCCCCCCNC(=N)c1ccc(N2CCN(c3ccc(C(=N)NCCCCCCCCCC)cc3)CC2)cc1                  7.12
2  CNC(=N)c1ccc(N2CCN(c3ccc(C(=N)NC)cc3)CC2)cc1                  6.06
3  N=C(N)c1ccc(NC(=O)CCCCC(=O)Nc2ccc(C(=N)N)cc2)cc1                  6.19
4  CC(C)CCNC(=N)c1ccc(N2CCN(c3ccc(C(=N)NCCC(C)C)cc3)CC2)cc1                  7.38
5  N=C(NC1CCC1)c1ccc(N2CCN(c3ccc(C(=N)NC4CCC4)cc3)CC2)cc1                  8.15
6  c1cc(N2CCN(c3ccc(C4=NCCN4)cc3)CC2)ccc1C1=NCCN1                  7.05
7  N=C(N)c1ccc(N2CCCN(c3ccc(C(=N)N)cc3)CC2)cc1                  5.80

A = c1cc(N2CCCN(c3ccc(C4=NCCCN4)cc3)CC2)ccc1C1=NCCCN1
B = CCCCCCCCNC(=N)c1ccc(N2CCN(c3ccc(C(=N)NCCCCCCCC)cc3)CC2)cc1
**Query** Form field 'greater pIC50' accepts A or B ; which applies? Please respond with the label that marks your chosen entry.
**Result** B
(B: 6.86, A: 5.29)

P = N=C(NC1CC1)c1ccc(N2CCN(c3ccc(C(=N)NC4CC4)cc3)CC2)cc1
Q = C(=C1CCN(c2ccc(C3=NCCN3)cc2)CC1)c1ccc(C2=NCCN2)cc1
R = CCCCNC(=N)c1ccc(N2CCCN(c3ccc(C(=N)NCCCC)cc3)CC2)cc1
**Query** # desc sort on pIC50 across 3 molecules Would you mind listing the labels in the order asked for?
**Result** R, P, Q

A = c1cc(N2CCCN(c3ccc(C4=NCCN4)cc3)CC2)ccc1C1=NCCN1
B = c1cc(C2=NCCN2)ccc1CC1CCN(c2ccc(C3=NCCN3)cc2)CC1
C = N=C(NCCCO)c1ccc(N2CCN(c3ccc(C(=N)NCCCO)cc3)CC2)cc1
D = N=C(NC1CCCCCC1)c1ccc(N2CCN(c3ccc(C(=N)NC4CCCCCC4)cc3)CC2)cc1
E = N=C(N)c1ccc(COc2ccccc2OCc2ccc(C(=N)N)cc2)cc1
**Query** // ascending sort on recorded pIC50 Would you mind listing the labels in the order asked for?
**Result** C, E, B, A, D
(C: 5.06, E: 6.17, B: 6.40, A: 6.83, D: 7.44)

P = CCCCCCNC(=N)c1ccc(N2CCN(c3ccc(C(=N)NCCCCCC)cc3)CC2)cc1
Q = N=C(N)c1ccc(OCc2ccccc2COc2ccc(C(=N)N)cc2)cc1
R = N=C(N)c1ccc(OCc2cccc(COc3ccc(C(=N)N)cc3)c2)cc1
S = CCCCCCCCCCCCNC(=N)c1ccc(N2CCN(c3ccc(C(=N)NCCCCCCCCCCCC)cc3)CC2)cc1
**Query** // ascending sort on recorded pIC50 Would you mind listing the labels in the order asked for?
**Result** S, Q, R, P

###

# Test system: Plasmodium falciparum
# test_name: Antiplasmodial activity against chloroquine-sensitive Plasmodium falciparum D6 by LDH reporter assay
# Type: functional, organism-based
property: IC50 (nM)

>>> print(df.to_string())
                                   compound  unit_descriptor  recorded_measurement
0  N=C(N)c1ccc(OCc2ccc(COc3ccc(C(=N)N)cc3)cc2)cc1               nM                   114

a = CCCCCCCNC(=N)c1ccc(N2CCN(c3ccc(C(=N)NCCCCCCC)cc3)CC2)cc1
b = N=C(NC1CC1)c1ccc(N2CCCN(c3ccc(C(=N)NC4CC4)cc3)CC2)cc1
c = CCNC(=N)c1ccc(N2CCN(c3ccc(C(=N)NCC)cc3)CC2)cc1
d = c1ccc2[nH]c(-c3ccc(N4CCN(c5ccc(-c6nc7ccccc7[nH]6)cc5)CC4)cc3)nc2c1
e = N=C(NO)c1ccc(N2CCN(c3ccc(C(=N)NO)cc3)CC2)cc1
**Query** // ascending sort on recorded IC50 Would you mind listing the labels in the order asked for?
**Result** a, c, b, d, e
(a: 48 nM, c: 124 nM, b: 306 nM, d: 4880 nM, e: 8320 nM)

###

# Tested on: Plasmodium falciparum
# test_name: Antiplasmodial activity against chloroquine-sensitive Plasmodium falciparum D6 by LDH reporter assay
# Type: functional, organism-based
property: IC50 (nM)

A = N=C(NC1CCCCCCC1)c1ccc(N2CCN(c3ccc(C(=N)NC4CCCCCCC4)cc3)CC2)cc1
B = CCCCCCCCCNC(=N)c1ccc(N2CCN(c3ccc(C(=N)NCCCCCCCCC)cc3)CC2)cc1
**Query** Form field 'greater IC50' accepts A or B ; which applies? Please respond with the label that marks your chosen entry.
**Result** B
(B: 88 nM, A: 55 nM)

a = CCCCCNC(=N)c1ccc(N2CCN(c3ccc(C(=N)NCCCCC)cc3)CC2)cc1
b = CCC(C)CNC(=N)c1ccc(N2CCN(c3ccc(C(=N)NCC(C)CC)cc3)CC2)cc1 (stereo unspecified)
**Query** Could you tell me which of a and b has the lower IC50 reading? Please respond with the label that marks your chosen entry.
**Result** a
